# Assay target: Angiotensin II receptor (Rattus norvegicus, UniProt P29089+P25095+P35351)
# Sequence (P29089 whole entry): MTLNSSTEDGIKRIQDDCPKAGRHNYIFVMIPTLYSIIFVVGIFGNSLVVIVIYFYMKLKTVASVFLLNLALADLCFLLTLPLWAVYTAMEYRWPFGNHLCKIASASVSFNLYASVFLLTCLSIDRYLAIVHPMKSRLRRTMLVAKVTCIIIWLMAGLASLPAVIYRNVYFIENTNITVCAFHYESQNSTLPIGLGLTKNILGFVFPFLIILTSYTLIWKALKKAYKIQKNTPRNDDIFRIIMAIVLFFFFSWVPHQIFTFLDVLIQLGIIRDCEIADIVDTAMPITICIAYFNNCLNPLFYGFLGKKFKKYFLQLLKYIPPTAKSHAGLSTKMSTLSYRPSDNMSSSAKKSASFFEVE
# Sequence (P25095 whole entry): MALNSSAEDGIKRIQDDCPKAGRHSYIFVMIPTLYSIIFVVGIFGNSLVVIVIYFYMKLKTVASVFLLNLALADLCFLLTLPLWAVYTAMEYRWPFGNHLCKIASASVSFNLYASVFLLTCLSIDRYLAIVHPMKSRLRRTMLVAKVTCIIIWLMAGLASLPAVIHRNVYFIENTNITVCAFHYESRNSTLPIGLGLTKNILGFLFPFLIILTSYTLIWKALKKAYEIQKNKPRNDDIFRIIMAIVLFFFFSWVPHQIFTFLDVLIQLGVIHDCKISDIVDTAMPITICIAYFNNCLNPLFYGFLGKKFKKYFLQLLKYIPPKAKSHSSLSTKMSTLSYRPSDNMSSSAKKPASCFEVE
# Sequence (P35351 whole entry): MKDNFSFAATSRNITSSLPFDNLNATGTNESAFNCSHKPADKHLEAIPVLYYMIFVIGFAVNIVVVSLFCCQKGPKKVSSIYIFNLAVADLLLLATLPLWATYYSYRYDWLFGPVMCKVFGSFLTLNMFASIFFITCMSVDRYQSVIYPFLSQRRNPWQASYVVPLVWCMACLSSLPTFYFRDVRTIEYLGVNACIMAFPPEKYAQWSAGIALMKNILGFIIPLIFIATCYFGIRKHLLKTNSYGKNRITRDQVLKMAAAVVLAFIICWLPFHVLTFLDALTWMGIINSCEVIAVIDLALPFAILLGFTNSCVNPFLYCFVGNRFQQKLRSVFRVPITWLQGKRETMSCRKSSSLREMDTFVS
# Method notes: Antagonist activity at angiotensin 2 receptor in Sprague-Dawley rat uterus assessed as reduction of angiotensin 2-induced response pretreated for 2 mins followed by angiotensin 2 challenge for every 12 mins
Square brackets hold non-standard residues; d marks the D form. Peptide text beside a SMILES is read from it. Sar = CNCC(=O)O
Reported pA2 by item:
Answer as a number with no unit attached.

Consider the following illustrative entries.
[[record]]
compound = "CC[C@H](C)[C@H](NC(=O)[C@H](Cc1ccc(O)cc1)NC(=O)[C@@H](NC(=O)[C@H](CCCNC(=N)N)NC(=O)CNC)C(C)C)C(=O)N[C@@H](Cc1cnc[nH]1)C(=O)N(C)CC(=O)N[C@H](C(=O)O)[C@@H](C)OC (H-[Sar]RVYIH[Sar]T(Me)-OH)"
measured_parameter = "pA2"
endpoint_result = 7.4

[[record]]
compound = "CCC(C)C(NC(=O)CN(C)C(=O)[C@H](Cc1cnc[nH]1)NC(=O)[C@@H](NC(=O)[C@H](Cc1ccc(O)cc1)NC(=O)[C@@H](NC(=O)[C@H](CCCNC(=N)N)NC(=O)CNC)C(C)C)[C@@H](C)CC)C(=O)O (mixture of isomers)"
measured_parameter = "pA2"
endpoint_result = 8.4

[[record]]
compound = "CC[C@H](C)[C@H](NC(=O)CN(C)C(=O)[C@H](Cc1cnc[nH]1)NC(=O)[C@@H](NC(=O)[C@H](Cc1ccc(O)cc1)NC(=O)[C@@H](NC(=O)[C@H](CCCNC(=N)N)NC(=O)CNC)C(C)C)[C@@H](C)CC)C(=O)O"
measured_parameter = "pA2"
endpoint_result = 8.1

[[record]]
compound = "CC[C@H](C)[C@H](NC(=O)[C@H](Cc1ccc(O)cc1)NC(=O)[C@@H](NC(=O)[C@H](CCCNC(=N)N)NC(=O)CNC)C(C)C)C(=O)N[C@@H](Cc1cnc[nH]1)C(=O)N(C)CC(=O)N[C@@H](CC(C)C)C(=O)O (H-[Sar]RVYIH[Sar]L-OH)"
measured_parameter = "pA2"
endpoint_result = 7.4


Fill in pA2 for record CC[C@H](C)[C@H](NC(=O)[C@H](Cc1ccc(O)cc1)NC(=O)[C@@H](NC(=O)[C@H](CCCNC(=N)N)NC(=O)CNC)C(C)C)C(=O)N[C@@H](Cc1cnc[nH]1)C(=O)N(C)CC(=O)N[C@@H](CCSC)C(=O)O (H-[Sar]RVYIH[Sar]M-OH)
7.7

Fill in pA2 for record CC[C@H](C)[C@H](NC(=O)[C@H](Cc1ccc(O)cc1)NC(=O)[C@@H](NC(=O)[C@H](CCCNC(=N)N)NC(=O)CNC)C(C)C)C(=O)N[C@@H](Cc1cnc[nH]1)C(=O)N(C)CC(=O)N[C@@H](C)C(=O)O (H-[Sar]RVYIH[Sar]A-OH)
7

Sourced from ChEMBL document CHEMBL3244222
